EXPERIMENTAL_TARGET: Integrin alpha-IIb/beta-3 (Homo sapiens) (UniProt P05106+P08514)
RUN_DESCRIPTION: Evaluated for competitive binding against fibrinogen receptor antagonist [125I]-L-692,884 to purified alpha IIb beta-3 integrin activated by coating onto yttrium silicate Scintillation Proximity Assay Fluomicrospheres (SPA-A assay).
Type: protein-complex assay

{"SUBSTANCE_SMILES": "Cc1ccc(S(=O)(=O)N[C@@H](CNC(=O)c2cc3cc(OCC4CCNCC4)ccc3[nH]2)C(=O)O)cc1", "EXPERIMENTAL_TARGET": "Integrin alpha-IIb/beta-3 (Homo sapiens) (UniProt P05106+P08514)", "ED50": "0.06 nM"}
{"SUBSTANCE_SMILES": "Nc1cc(COc2ccc3[nH]c(C(=O)NC[C@H](NS(=O)(=O)c4ccccc4)C(=O)O)cc3c2)ccn1", "EXPERIMENTAL_TARGET": "Integrin alpha-IIb/beta-3 (Homo sapiens) (UniProt P05106+P08514)", "ED50": "0.07 nM"}
{"SUBSTANCE_SMILES": "O=C(NC[C@H](NS(=O)(=O)c1cccnc1)C(=O)O)c1cc2cc(OCC3CCNCC3)ccc2[nH]1", "EXPERIMENTAL_TARGET": "Integrin alpha-IIb/beta-3 (Homo sapiens) (UniProt P05106+P08514)", "ED50": "0.07 nM"}
{"SUBSTANCE_SMILES": "O=C(NC[C@H](NS(=O)(=O)c1ccccc1)C(=O)O)c1cc2cc(OCCCc3c[nH]cn3)ccc2[nH]1", "EXPERIMENTAL_TARGET": "Integrin alpha-IIb/beta-3 (Homo sapiens) (UniProt P05106+P08514)", "ED50": "2 nM"}

###

EXPERIMENTAL_TARGET: Integrin alpha-IIb/beta-3 (Homo sapiens) (UniProt P05106+P08514)
RUN_DESCRIPTION: Evaluated for competitive binding against fibrinogen receptor antagonist [125I]-L-692,884 to purified alpha IIb beta-3 integrin activated by coating onto yttrium silicate Scintillation Proximity Assay Fluomicrospheres (SPA-A assay).
Assay type: protein-complex assay
Below, each entry is listed alongside its reported ED50.

{"COMPOUND": "CC1(C)C2CCC1(CS(=O)(=O)N[C@@H](CNC(=O)c1cc3cc(OCC4CCNCC4)ccc3[nH]1)C(=O)O)C(=O)C2 (stereo partly drawn)", "U": "nM", "ED50": 0.04}
{"COMPOUND": "O=C(NC[C@H](NS(=O)(=O)c1ccccc1)C(=O)O)c1cc2cc(OCCN3CCNCC3)ccc2[nH]1", "U": "nM", "ED50": 0.13}
{"COMPOUND": "O=C(NC[C@H](NS(=O)(=O)c1ccccc1)C(=O)O)c1cc2ccc(OCC3CCNCC3)cc2[nH]1", "U": "nM", "ED50": 0.49}
{"COMPOUND": "O=C(O)CCNC(=O)c1cc2cc(OCC3CCNCC3)ccc2[nH]1", "U": "nM", "ED50": 170}
{"COMPOUND": "O=C(NC[C@H](NS(=O)(=O)c1ccccc1)C(=O)O)c1cc2cc(OCCC3CCNCC3)ccc2[nH]1", "U": "nM", "ED50": 0.056}
{"COMPOUND": "O=C(NC[C@H](NS(=O)(=O)c1ccccc1)C(=O)O)c1cc2cc(OCc3ccncc3)ccc2[nH]1", "U": "nM", "ED50": 0.25}
{"COMPOUND": "O=C(NC[C@H](NS(=O)(=O)c1ccccc1)C(=O)O)c1cc2cc(OCC3CCNCC3)ccc2[nH]1", "U": "nM", "ED50": 0.099}
{"COMPOUND": "O=C(NC[C@H](NS(=O)(=O)c1ccccc1)C(=O)O)c1cc2cc(OCCn3ccnc3)ccc2[nH]1", "U": "nM", "ED50": 0.28}

###

Below, each entry is listed alongside its reported Binding.
EXPERIMENTAL_TARGET: Albumin (Homo sapiens, UniProt P02768)
Sequence (P02768 whole entry): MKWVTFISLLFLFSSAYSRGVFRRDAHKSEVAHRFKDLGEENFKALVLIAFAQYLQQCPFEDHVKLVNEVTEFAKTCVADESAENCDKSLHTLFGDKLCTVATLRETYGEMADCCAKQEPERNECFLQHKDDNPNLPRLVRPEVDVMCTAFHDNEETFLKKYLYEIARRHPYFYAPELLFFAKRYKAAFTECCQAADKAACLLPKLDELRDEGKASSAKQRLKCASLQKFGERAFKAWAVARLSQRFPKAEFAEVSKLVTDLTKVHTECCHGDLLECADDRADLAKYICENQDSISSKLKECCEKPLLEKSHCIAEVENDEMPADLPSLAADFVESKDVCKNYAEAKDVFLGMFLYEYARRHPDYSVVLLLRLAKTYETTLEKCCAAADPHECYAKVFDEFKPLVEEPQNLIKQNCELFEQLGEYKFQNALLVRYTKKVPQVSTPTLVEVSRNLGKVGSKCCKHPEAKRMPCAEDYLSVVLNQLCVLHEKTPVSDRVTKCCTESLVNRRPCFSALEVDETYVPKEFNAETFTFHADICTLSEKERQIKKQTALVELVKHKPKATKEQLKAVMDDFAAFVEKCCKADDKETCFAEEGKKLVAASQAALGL
RUN_DESCRIPTION: Protein Binding Assay measures the ability of a compound to bind to human albumin in pH 7.4 buffer.

{"COMPOUND": "Cn1c(C(=O)NC[C@H](NS(=O)(=O)c2ccccc2)C(=O)O)cc2cc(OCC3CCNCC3)ccc21", "EXPERIMENTAL_TARGET": "Albumin (Homo sapiens, UniProt P02768)", "Binding, %": 94}
{"COMPOUND": "O=C(NC[C@H](NS(=O)(=O)c1ccccc1)C(=O)O)c1cc2cc(OCCN3CCNCC3)ccc2[nH]1", "EXPERIMENTAL_TARGET": "Albumin (Homo sapiens, UniProt P02768)", "Binding, %": 57}
{"COMPOUND": "O=C(NC[C@H](NS(=O)(=O)c1ccccc1)C(=O)O)c1cc2cc(OCCn3ccnc3)ccc2[nH]1", "EXPERIMENTAL_TARGET": "Albumin (Homo sapiens, UniProt P02768)", "Binding, %": 98}
{"COMPOUND": "O=C(NC[C@H](NS(=O)(=O)c1ccccc1)C(=O)O)c1cc2ccc(OCC3CCNCC3)cc2[nH]1", "EXPERIMENTAL_TARGET": "Albumin (Homo sapiens, UniProt P02768)", "Binding, %": 57}
{"COMPOUND": "O=C(O)CCNC(=O)c1cc2cc(OCC3CCNCC3)ccc2[nH]1", "EXPERIMENTAL_TARGET": "Albumin (Homo sapiens, UniProt P02768)", "Binding, %": 52}
{"COMPOUND": "O=C(NC[C@H](NS(=O)(=O)c1ccccc1)C(=O)O)c1cc2cc(OCc3ccncc3)ccc2[nH]1", "EXPERIMENTAL_TARGET": "Albumin (Homo sapiens, UniProt P02768)", "Binding, %": 99}
{"COMPOUND": "O=C(O)CC(NC(=O)c1cc2cc(OCC3CCNCC3)ccc2[nH]1)c1cccnc1 (stereo not drawn)", "EXPERIMENTAL_TARGET": "Albumin (Homo sapiens, UniProt P02768)", "Binding, %": 47}
{"COMPOUND": "O=C(NC[C@H](NS(=O)(=O)c1ccccc1)C(=O)O)c1cc2cc(OCCC3CCNCC3)ccc2[nH]1", "EXPERIMENTAL_TARGET": "Albumin (Homo sapiens, UniProt P02768)", "Binding, %": 76}

###

EXPERIMENTAL_TARGET: Albumin (Homo sapiens, UniProt P02768)
RUN_DESCRIPTION: Protein Binding Assay measures the ability of a compound to bind to human albumin in pH 7.4 buffer.

{"MOLECULE": "CC1(C)C2CCC1(CS(=O)(=O)N[C@@H](CNC(=O)c1cc3cc(OCC4CCNCC4)ccc3[nH]1)C(=O)O)C(=O)C2 (stereo partly drawn)", "Binding / %": 63}
{"MOLECULE": "Cn1c(C(=O)NC[C@H](NS(=O)(=O)c2ccccc2)C(=O)O)cc2cc(OCCC3CCNCC3)ccc21", "Binding / %": 94}
{"MOLECULE": "O=C(NC[C@H](NS(=O)(=O)c1ccccc1)C(=O)O)c1cc2cc(OCC3CCNCC3)ccc2[nH]1", "Binding / %": 66}
